assay-remarks: Quantitative High-Throughput drug screen in 47 multiple myeloma cell lines against the NCATS MIPE library collection: Delta47_JCRB cell viability assay (AID 1918925; note: nearly all actives have a fitted effect of over 45% in size)
measurement-context: Delta47 myeloma viability, CellTiter-Glo ATP, 48 h; series mostly up to 45.8 µM
Inconclusive results are not listed. The source made the active and inactive calls. Calls come from the whole dose curve; as a rule, active = well fitted cell-killing curve with a large enough effect; inconclusive = small, poorly fitted or top-dose-only effect, or effect the other way; inactive = no such curve, though single readings can be large or run the other way.
Answer with one of the outcomes yes = active, no = inactive

Observe how each entry below is paired with its result.
compound: CCC1(c2ccc(N)cc2)CCC(=O)NC1=O (configuration not stated)
class-name: no
//
compound: CC(C)c1cccc(C(C)C)c1O
class-name: no
//
compound: CN1C(=O)COc2c(C(=O)NC3CN4CCC3CC4)cc(Cl)cc21 (configuration not stated)
class-name: no
//
compound: CC(C)C[C@H](CN)CC(=O)O
class-name: no
//
compound: O=P1(N(CCCl)CCCl)NCCCO1 (configuration not stated)
class-name: yes

**Q:** What did this assay record as the result for COc1cc(OC)c(OC)cc1C=O ?
**A:** no

**Q:** What did this assay record as the result for C[C@](O)(CS(=O)(=O)c1ccc(F)cc1)C(=O)Nc1ccc(C#N)c(C(F)(F)F)c1 ?
**A:** yes
